molecular target: human recombinant Btk (Homo sapiens); experiment: Human Recombinant Btk Enzyme Assay; details: human recombinant Btk 1 nM, ATP 20 μM, 60 min at room temperature; read-out: IC50 for Inhibition of Btk
Returns: string. Value is label 1 if measured IC50 is below 2 nM, and label 0 if it is greater than or equal to it.

{"Compound": "CC(=O)NCc1ccc2c(c1)[nH]c1c(C(N)=O)ccc(-c3cccc(-n4cnc5ccc(F)cc5c4=O)c3C)c12", "Cat": "label 1"}
{"Compound": "Cc1c(-c2ccc(C(N)=O)c3[nH]c4cc(C(O)CO)ccc4c23)cccc1N1Cc2ccccc2C1=O (racemic)", "Cat": "label 0"}
{"Compound": "Cc1c(NC(=O)c2ccc(F)cc2)cccc1-c1ccc(C(N)=O)c2[nH]c3cc(CN4CCCC4)ccc3c12", "Cat": "label 1"}
{"Compound": "Cc1c(-c2ccc(C(N)=O)c3[nH]c4cc(C(C)(C)O)ccc4c23)cccc1-n1ccn2c(C)cnc2c1=O", "Cat": "label 1"}
{"Compound": "CN1CCN(C(=O)c2ccc3c(c2)[nH]c2c(C(N)=O)ccc(-c4cc(Cl)ccc4F)c23)CC1", "Cat": "label 0"}
{"Compound": "Cc1c(NC(=O)c2nc(C(C)C)cs2)cccc1-c1ccc(C(N)=O)c2[nH]c3cc(C(=O)N4CCN(C)CC4)ccc3c12", "Cat": "label 0"}
{"Compound": "CN1CCN(C(=O)c2ccc3c(c2)[nH]c2c(C(N)=O)ccc(-c4cc(F)ccc4F)c23)CC1", "Cat": "label 0"}

* * *

# IC50 values compiled below
biological target: human recombinant Btk (Homo sapiens); assay: Human Recombinant Btk Enzyme Assay; conditions: human recombinant Btk 1 nM, ATP 20 μM, 60 min at room temperature; read-out: IC50 for Inhibition of Btk
Test readout: IC50 (nM)

{"Molecule": "CC(=O)Nc1ccc(F)c(-c2ccc(C(N)=O)c3[nH]c4cc(C(=O)N5CCN(C)CC5)ccc4c23)c1 [Example 2-35]", "Numeric result": 16}
{"Molecule": "COC1=CC(=O)N(c2cccc(-c3ccc(C(N)=O)c4[nH]c5cc(C(C)(C)O)ccc5c34)c2C)C1 [Example 82-1]", "Numeric result": 1.9}
{"Molecule": "NC(=O)c1ccc(-c2ccccc2F)c2c1[nH]c1cc(C(=O)N3CCOCC3)ccc12 [Example 3-9]", "Numeric result": 17}
{"Molecule": "Cc1c(-c2ccc(C(N)=O)c3[nH]c4cc(C(O)CO)ccc4c23)cccc1-n1cnc2ccc(Cl)cc2c1=O (stereo not shown) [Example 70-14]", "Numeric result": 0.9}
{"Molecule": "CN1CCN(C(=O)C2CCc3c([nH]c4c(C(N)=O)ccc(Br)c34)C2)CC1 (stereo not shown) [Example 1-3]", "Numeric result": 490}
{"Molecule": "Cc1c(-c2ccc(C(N)=O)c3[nH]c4cc(C(C)(C)O)ccc4c23)cccc1-n1cnc2c(F)cccc2c1=O [Example 76-51]", "Numeric result": 1.4}
{"Molecule": "Cc1c(-c2ccc(C(N)=O)c3[nH]c4c(c23)CCC(CO)C4)cccc1N1C(=O)c2ccc(C(C)(C)C)cc2C1=O (stereo not shown) [Example 31-2]", "Numeric result": 700}

* * *

target: human recombinant Btk (Homo sapiens); construct: purchased Invitrogen Corporation; assay: Human Recombinant Btk Enzyme Assay; assay type: biochemical; conditions: human recombinant Btk 1 nM, ATP 20 μM, 60 min at room temperature; read-out: IC50 for Inhibition of Btk
pIC50: −log10 of the molar value. Counter-ions that a name gives are not always drawn.
Mark N for pIC50 values under 6, and Y for everything at or above.

{"Molecule": "CC(C)(C)OC(=O)n1cc(-c2ccc(C(N)=O)c3[nH]c4c(c23)CCC(C(=O)NC2CCOCC2)C4)cn1 (stereo not shown)", "Cat": "N"}
{"Molecule": "Cc1c(NC(=O)C2(C#N)CC2)cccc1-c1ccc(C(N)=O)c2[nH]c3cc(C(=O)N4CCN(C)CC4)ccc3c12 [Example 5-73, TFA salt]", "Cat": "Y"}
{"Molecule": "Cc1c(-c2ccc(C(N)=O)c3[nH]c4cc(C(=O)N5CCN(C)CC5)ccc4c23)cccc1N(C(C)C)S(C)(=O)=O (single isomer, unassigned) [Example 10-2]", "Cat": "N"}
{"Molecule": "Cc1c(-c2ccc(C(N)=O)c3[nH]c4cc(C(=O)N5CCN(C)CC5)ccc4c23)cccc1N(C(C)C)S(C)(=O)=O (single isomer, unassigned) [Example 10-3]", "Cat": "N"}
{"Molecule": "Cc1c(NC(=O)c2ccc(F)cc2)cccc1-c1ccc(C(N)=O)c2[nH]c3cc(NC(=O)Cc4ccncc4)ccc3c12", "Cat": "Y"}
{"Molecule": "CN1CCN(C(=O)c2ccc3c(c2)[nH]c2c(C(N)=O)ccc(-c4cccc5cccnc45)c23)CC1", "Cat": "N"}
{"Molecule": "Cc1c(NC(=O)c2ccc(F)cc2)cccc1-c1ccc(C(N)=O)c2[nH]c3cc(NC(=O)CCN4CCOCC4)ccc3c12", "Cat": "Y"}
{"Molecule": "Cc1c(NC(=O)c2ccc(F)cc2)cccc1-c1ccc(C(N)=O)c2[nH]c3cc(C(=O)N4CCN(CCO)CC4)ccc3c12 [Example 24-17, TFA salt]", "Cat": "Y"}
{"Molecule": "Cc1c(N)cccc1-c1ccc(C(N)=O)c2[nH]c3c(c12)CCC(NC(=O)OCc1ccccc1)C3 (stereo not shown)", "Cat": "Y"}
{"Molecule": "Cc1ccc2c(Nc3cccc(-c4ccc(C(N)=O)c5[nH]c6cc(N7CCCC7=O)ccc6c45)c3C)ncnc2c1", "Cat": "Y"}
{"Molecule": "CN1CCN(C(=O)c2ccc3c(c2)[nH]c2c(C(N)=O)ccc(-c4cccc(-c5ccccc5)c4)c23)CC1", "Cat": "Y"}
{"Molecule": "Cc1c(NC(=O)c2ccc(F)cc2)cccc1-c1ccc(C(N)=O)c2[nH]c3cc(NC(=O)CN)ccc3c12", "Cat": "Y"}
{"Molecule": "CN1CCN(C(=O)c2ccc3c(c2)[nH]c2c(C(N)=O)ccc(N4CCCCC4=O)c23)CC1", "Cat": "Y"}
{"Molecule": "Cc1c(-c2ccc(C(N)=O)c3[nH]c4cc(NC(C)C)ccc4c23)cccc1-n1ccn2ccnc2c1=O", "Cat": "Y"}
{"Molecule": "Cc1c(NC(=O)c2ccccn2)cccc1-c1ccc(C(N)=O)c2[nH]c3c(c12)CCC(NC(=O)OCc1ccccc1)C3 (stereo not shown)", "Cat": "Y"}

* * *

# IC50 values compiled below
target: human recombinant Btk (Homo sapiens, UniProt Q06187); assay: Human Recombinant Btk Enzyme Assay; details: human recombinant Btk 1 nM, ATP 20 μM, 60 min at room temperature; read-out: IC50 for Inhibition of Btk
Sequence (Q06187 whole entry): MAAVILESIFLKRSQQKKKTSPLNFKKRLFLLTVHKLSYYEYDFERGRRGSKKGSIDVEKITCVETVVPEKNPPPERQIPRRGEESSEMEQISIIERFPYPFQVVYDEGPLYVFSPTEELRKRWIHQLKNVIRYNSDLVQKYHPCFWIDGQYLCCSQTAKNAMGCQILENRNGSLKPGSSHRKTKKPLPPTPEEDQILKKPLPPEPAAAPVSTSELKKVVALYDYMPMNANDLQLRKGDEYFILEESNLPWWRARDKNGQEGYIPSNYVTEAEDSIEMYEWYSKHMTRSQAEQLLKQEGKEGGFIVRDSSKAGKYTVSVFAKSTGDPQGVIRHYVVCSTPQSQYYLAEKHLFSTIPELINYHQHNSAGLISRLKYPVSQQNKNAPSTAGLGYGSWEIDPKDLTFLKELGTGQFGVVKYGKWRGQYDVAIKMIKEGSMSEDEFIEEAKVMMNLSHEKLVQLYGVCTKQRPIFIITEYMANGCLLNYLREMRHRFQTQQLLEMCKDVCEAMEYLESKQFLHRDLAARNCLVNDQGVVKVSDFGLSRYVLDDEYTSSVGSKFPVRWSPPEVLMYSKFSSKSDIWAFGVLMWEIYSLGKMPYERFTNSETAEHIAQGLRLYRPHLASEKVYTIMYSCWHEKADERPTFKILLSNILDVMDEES
Test readout: IC50

{"Test smiles": "Cc1c(NC(=O)Nc2ccccc2)cccc1-c1ccc(C(N)=O)c2[nH]c3cc(C(=O)N4CCN(C)CC4)ccc3c12", "Assay system": "human recombinant Btk (Homo sapiens, UniProt Q06187)", "Result": "0.016 µM"}
{"Test smiles": "CN1CCN(C(=O)c2ccc3c(c2)[nH]c2c(C(N)=O)ccc(-c4cccc5[nH]c(C(=O)Nc6ccc(F)cc6)cc45)c23)CC1", "Assay system": "human recombinant Btk (Homo sapiens, UniProt Q06187)", "Result": "3.1 µM"}
{"Test smiles": "Cc1c(-c2ccc(C(N)=O)c3[nH]c4cc(C(=O)N5CCN(C)CC5)ccc4c23)cccc1N1CCCS1(=O)=O", "Assay system": "human recombinant Btk (Homo sapiens, UniProt Q06187)", "Result": "0.018 µM"}

* * *

target: human recombinant Btk (Homo sapiens); test: Human Recombinant Btk Enzyme Assay; details: human recombinant Btk 1 nM, ATP 20 μM, 60 min at room temperature; read-out: IC50 for Inhibition of Btk
Where a name gives a salt, the structure may show the parent alone.
Test readout: IC50

{"Molecule": "CN1CCN(C(=O)c2ccc3c(c2)[nH]c2c(C(N)=O)ccc(-c4cc(NC(=O)c5ccc(F)cc5)ccn4)c23)CC1 [Example 2-43]", "Result": "520 nM"}
{"Molecule": "Cc1c(NC(=O)c2ccc(S(N)(=O)=O)cc2)cccc1-c1ccc(C(N)=O)c2[nH]c3cc(C(=O)N4CCN(C)CC4)ccc3c12 [Example 5-69, TFA salt]", "Result": "2 nM"}
{"Molecule": "Cc1nc(N)sc1-c1ccc(C(N)=O)c2[nH]c3c(c12)CCC(C(=O)NC1CCOCC1)C3 (stereo not drawn) [Example 4-3]", "Result": "390 nM"}

* * *

molecular target: human recombinant Btk (Homo sapiens, UniProt Q06187); assay: Human Recombinant Btk Enzyme Assay; conditions: human recombinant Btk 1 nM, ATP 20 μM, 60 min at room temperature; read-out: IC50 for Inhibition of Btk
Counter-ions that a name gives are not always drawn.
Test readout: IC50 (nM)

{"Compound": "COc1cccc(NC(=O)c2ccc3c(c2)[nH]c2c(C(N)=O)ccc(-c4cccc(NC(=O)c5ccc(F)cc5)c4C)c23)c1 [Example 24-33, TFA salt]", "Measurement units": "nM", "Numeric result": 470}
{"Compound": "Cc1c(NC(=O)c2nccn2C)cccc1-c1ccc(C(N)=O)c2[nH]c3cc(C(O)CO)ccc3c12 (stereo not drawn)", "Measurement units": "nM", "Numeric result": 1.6}
{"Compound": "CN1CCN(C(=O)c2ccc3c(c2)[nH]c2c(C(N)=O)ccc(N4CCC[C@@H](N)C4)c23)CC1", "Measurement units": "nM", "Numeric result": 1100}
{"Compound": "Cc1c(Nc2nccc3ccccc23)cccc1-c1ccc(C(N)=O)c2[nH]c3cc(C(=O)N4CCN(C)CC4)ccc3c12", "Measurement units": "nM", "Numeric result": 15}
{"Compound": "Cc1c(NC(=O)c2ccc(F)cc2)cccc1-c1ccc(C(N)=O)c2[nH]c3cc(C(=O)Nc4ccc(F)cc4)ccc3c12 [Example 24-34, TFA salt]", "Measurement units": "nM", "Numeric result": 410}
{"Compound": "Cc1ccc2c(c1)C(=O)N(c1cccc(-c3ccc(C(N)=O)c4[nH]c5cc(C(COC(=O)C(C)N)OC(=O)C(C)N)ccc5c34)c1C)C2 (stereo not drawn)", "Measurement units": "nM", "Numeric result": 1.4}
